# assay-system: KRAS^G12C in the GTP state (Homo sapiens, UniProt P01116, G12C)
# Sequence (P01116 1-188 isoform P01116-2 G12C): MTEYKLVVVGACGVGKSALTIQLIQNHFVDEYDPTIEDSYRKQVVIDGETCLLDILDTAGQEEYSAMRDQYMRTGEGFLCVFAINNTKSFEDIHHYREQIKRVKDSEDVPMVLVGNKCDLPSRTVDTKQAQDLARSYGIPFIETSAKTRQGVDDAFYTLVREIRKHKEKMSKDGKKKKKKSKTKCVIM
# run-description: MST binding, GTP-state KRAS G12C
measurement-type: Kd

Reported Kd for `Cc1nn2c(N3CCN(CCO)CC3)cc(-c3ccccc3)nc2c1-c1ccccc1` was 0.4 to 0.7 µM

###

# assay-system: GTPKRAS^WT (Homo sapiens, UniProt P01116)
# Sequence (P01116 1-188 isoform P01116-2): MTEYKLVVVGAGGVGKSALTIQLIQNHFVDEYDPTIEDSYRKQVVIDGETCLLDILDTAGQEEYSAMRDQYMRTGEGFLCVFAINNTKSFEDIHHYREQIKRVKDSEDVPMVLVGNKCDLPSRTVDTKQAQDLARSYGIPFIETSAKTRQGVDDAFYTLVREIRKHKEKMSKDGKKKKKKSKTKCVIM
# run-description: Microscale thermophoresis (MST) binding, GTP-state (GNP-bound) KRAS WT
pKd: −log10 of the molar value.
measurement-type: pKd

Reported pKd for Cc1nn2c(N3CCN(CCO)CC3)cc(-c3ccccc3)nc2c1-c1ccccc1 [Compound 11] was ~6.52

###

# assay-system: KRAS^G12D in the GTP state (Homo sapiens, UniProt P01116, G12D)
# Sequence (P01116 1-188 isoform P01116-2 G12D): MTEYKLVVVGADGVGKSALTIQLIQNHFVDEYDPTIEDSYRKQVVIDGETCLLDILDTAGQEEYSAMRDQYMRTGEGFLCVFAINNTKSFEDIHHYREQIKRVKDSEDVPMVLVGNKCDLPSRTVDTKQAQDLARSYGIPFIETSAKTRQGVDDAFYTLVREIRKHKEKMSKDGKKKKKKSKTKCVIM
# run-description: MST binding, GTP-state KRAS G12D
measurement-type: Kd

Reported Kd for `Cc1nn2c(N3CCN(CCO)CC3)cc(-c3ccccc3)nc2c1-c1ccccc1` was 400 to 700 nM
